Target: EGFR Del19/T790M/C797S (Homo sapiens, UniProt P00533, C797S/DEL746-750/T790M)
Sequence (P00533 with tags, fused parts or gaps DEL746-750/T790M/C797S): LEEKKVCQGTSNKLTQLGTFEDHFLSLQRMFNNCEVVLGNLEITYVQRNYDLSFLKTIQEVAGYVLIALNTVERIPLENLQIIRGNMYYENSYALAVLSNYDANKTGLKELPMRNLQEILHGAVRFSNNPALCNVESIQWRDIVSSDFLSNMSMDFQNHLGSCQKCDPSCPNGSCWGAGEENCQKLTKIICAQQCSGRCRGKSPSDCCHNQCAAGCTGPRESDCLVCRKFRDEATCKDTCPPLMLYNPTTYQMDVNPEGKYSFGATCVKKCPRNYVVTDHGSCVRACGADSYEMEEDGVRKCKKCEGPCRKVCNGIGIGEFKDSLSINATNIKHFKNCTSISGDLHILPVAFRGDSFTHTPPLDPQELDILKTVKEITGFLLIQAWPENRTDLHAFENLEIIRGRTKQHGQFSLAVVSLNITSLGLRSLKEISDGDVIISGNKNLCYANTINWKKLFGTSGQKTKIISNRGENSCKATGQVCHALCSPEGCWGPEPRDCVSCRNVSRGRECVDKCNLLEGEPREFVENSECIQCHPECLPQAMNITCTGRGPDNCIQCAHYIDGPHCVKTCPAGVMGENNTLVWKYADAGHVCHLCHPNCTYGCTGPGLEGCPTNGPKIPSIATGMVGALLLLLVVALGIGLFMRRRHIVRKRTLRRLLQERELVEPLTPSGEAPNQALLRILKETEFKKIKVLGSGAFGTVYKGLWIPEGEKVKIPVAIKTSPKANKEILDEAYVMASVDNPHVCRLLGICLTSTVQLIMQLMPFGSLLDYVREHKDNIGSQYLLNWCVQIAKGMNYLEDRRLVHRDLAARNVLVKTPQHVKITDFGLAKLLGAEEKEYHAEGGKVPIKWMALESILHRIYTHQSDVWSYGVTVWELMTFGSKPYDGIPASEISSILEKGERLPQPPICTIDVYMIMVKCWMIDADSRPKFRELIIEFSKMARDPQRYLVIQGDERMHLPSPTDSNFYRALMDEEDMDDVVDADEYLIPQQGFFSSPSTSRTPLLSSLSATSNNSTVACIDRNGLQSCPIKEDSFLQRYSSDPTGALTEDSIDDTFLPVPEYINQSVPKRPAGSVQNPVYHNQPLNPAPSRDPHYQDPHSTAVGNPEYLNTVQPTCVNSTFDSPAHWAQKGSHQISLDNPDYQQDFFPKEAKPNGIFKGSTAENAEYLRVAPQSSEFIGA
Assay: Biochemical EGFR kinase inhibition assay (Lance Ultra TR-FRET), triple mutant del19/T790M/C797S
Settings: IC50 Del19/T790M/C797S (nM), 100 μM ATP
testReadout: log10 IC50 (log10 of the value in nM)
For clarity, the numbers are log10 values of IC50 expressed in nM.

### Prompt Report log10 IC50 for O=C(N1CCC(C#Cc2cnc(Nc3ccnc(-c4cnn(S(=O)(=O)C5CC5)c4)n3)cc2NC2CCC(CO)CC2)C1)C(F)(F)F (stereo not drawn) please.
### Response -1.00

### Prompt Report log10 IC50 for "CN1CCn2ncc(C#Cc3cnc(Nc4ccnc(-c5cnn(S(=O)(=O)C6CC6)c5)n4)cc3N3CCC(C)(CO)CC3)c2C1" please.
### Response -0.30

### Prompt Report log10 IC50 for "O=S(=O)(C1CC1)n1cc(-c2nccc(Nc3cc(N4CCC(F)CC4)c(C#Cc4cnn(C5CCOCC5)c4)cn3)n2)cn1" please.
### Response 0.26

### Prompt Report log10 IC50 for "O=S(=O)(C1CC1)n1cc(-c2nccc(Nc3cc(N[C@H]4CC[C@@H](O)CC4)c(C#Cc4ccc(CN5CCOCC5)cn4)cn3)n2)cn1" please.
### Response 0.18

### Prompt Report log10 IC50 for "Cn1cc(C#Cc2cnc(Nc3ccnc(-c4cnn(S(=O)(=O)C5CC5)c4)n3)cc2N2CCC(CO)CC2)c(C(F)(F)F)n1" please.
### Response 0.56

### Prompt Report log10 IC50 for "CNCCC1CCN(c2cc(Nc3ccnc(-c4cnn(S(=O)(=O)C5CC5)c4)n3)ncc2C#Cc2cnn(C)c2)CC1" please.
### Response -1.00

###

Biological target: EGFR Del19/T790M/C797S (Homo sapiens, UniProt P00533, C797S/DEL746-750/T790M)
Assay: Biochemical EGFR kinase inhibition assay (Lance Ultra TR-FRET), triple mutant del19/T790M/C797S
Settings: Km ATP; read-out: IC50 Del19/T790M/C797S (nM) Km ATP
testReadout: IC50

### Prompt Report IC50 for CN(C)C(=O)Cn1cc(C#Cc2cnc(Nc3ccnc(-c4cnn(S(=O)(=O)C5CC5)c4)n3)cc2N[C@H]2CC[C@@](C)(O)CC2)cn1 [Example 221] please.
### Response 2.9 nM

### Prompt Report IC50 for Cn1cc(C#Cc2cnc(Nc3ccnc(-c4cnn(S(=O)(=O)C5CC5)c4)n3)cc2N2CC(C(C)(C)O)C2)cn1 [Example 35] please.
### Response 0.9 nM

### Prompt Report IC50 for CC(=O)N1CCC(n2cc(C#Cc3cnc(Nc4ccnc(-c5cnn(S(=O)(=O)C6CC6)c5)n4)cc3N[C@H]3CC[C@@H](O)CC3)cn2)CC1 [Example 109] please.
### Response 0.9 nM

### Prompt Report IC50 for CC(C)Nc1cc(Nc2ccnc(-c3cnn(S(=O)(=O)C4CC4)c3)n2)ncc1C#Cc1cccnc1 [Example 21] please.
### Response 0.8 nM

### Prompt Report IC50 for CN(C)CCNC1CCN(c2cc(Nc3ccnc(-c4cnn(S(=O)(=O)C5CC5)c4)n3)ncc2C#Cc2cnn(C3CCOCC3)c2)CC1 [Example 138] please.
### Response 0.3 nM

### Prompt Report IC50 for CC(C)Nc1cc(Nc2ccnc(-c3cnn(S(=O)(=O)C4CC4)c3)n2)ncc1C#Cc1cnn(C(C)C)c1 [Example 19] please.
### Response 4.4 nM
